Measured values drawn from patent US20240327381A1 for this set.

target: IKZF1 ZNF2_ZNF3 Q1F degron-tagged CD19 CAR (Homo sapiens, UniProt Q13422, Q146F); construct: ZNF2_ZNF3 Q1F degron (GERPFFCNQCGASFTQKGNLLRHIKLHSGEKPFKCHLCNYACRRRDALTGHLRTHS); fused on or other part: anti-CD19 scFv, CD28 transmembrane domain, 4-1BB costimulatory domain, CD3 zeta signaling domain (the CAR that carries the degron), and Nluc; test: Degradation of Q1F degron-tagged CD19 CAR in Jurkat cells (flow cytometry of CAR levels); format: cell-based; conditions: Ymax is the % protein degraded; Jurkat cells expressing Q1F degron-tagged CD19 CAR; 18 hours; read-out: Q1F Jurkat-YMax
Sequence (Q13422 whole entry Q146F, the tested form may be a part): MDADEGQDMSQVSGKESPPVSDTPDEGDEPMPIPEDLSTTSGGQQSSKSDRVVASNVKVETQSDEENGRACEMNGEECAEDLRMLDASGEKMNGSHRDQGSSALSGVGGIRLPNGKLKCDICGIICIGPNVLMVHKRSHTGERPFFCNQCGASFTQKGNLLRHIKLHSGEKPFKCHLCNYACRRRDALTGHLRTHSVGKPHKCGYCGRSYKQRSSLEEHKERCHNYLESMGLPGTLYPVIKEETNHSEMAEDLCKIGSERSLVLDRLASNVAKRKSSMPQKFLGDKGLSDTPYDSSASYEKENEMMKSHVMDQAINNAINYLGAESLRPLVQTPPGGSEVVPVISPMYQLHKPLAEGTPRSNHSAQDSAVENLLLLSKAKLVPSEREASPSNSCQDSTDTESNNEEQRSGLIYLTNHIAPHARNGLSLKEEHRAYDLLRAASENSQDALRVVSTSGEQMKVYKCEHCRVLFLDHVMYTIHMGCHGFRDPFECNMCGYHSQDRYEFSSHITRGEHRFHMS
READOUT_TYPE: Dmax (%)

P. O=C1CCC(N2Cc3c(cc(F)c(C4CCN(Cc5cc(F)ccc5-n5cccn5)CC4)c3F)C2=O)C(=O)N1 (centres unmarked) [Compound 47]
Q. O=C1CCC(N2Cc3c(cc(F)c(CNC(=O)C4CCC(C(F)(F)F)CC4)c3F)C2=O)C(=O)N1 (centres unmarked) [Compound 78]
Prompt line: Lab note: check whether P or Q has the lower measured Dmax. Mark your answer with the label of the selected entry.
Response line: Q
(Q: 61.7%, P: 88.8%)

* * *

biological target: IKZF1 ZNF2_ZNF3 Q1F degron-tagged CD19 CAR (Homo sapiens, UniProt Q13422, Q146F); construct: ZNF2_ZNF3 Q1F degron (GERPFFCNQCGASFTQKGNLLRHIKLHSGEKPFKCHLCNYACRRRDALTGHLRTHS); fused on or other part: anti-CD19 scFv, CD28 transmembrane domain, 4-1BB costimulatory domain, CD3 zeta signaling domain (the CAR that carries the degron), and Nluc; experiment: Degradation of Q1F degron-tagged CD19 CAR in Jurkat cells (flow cytometry of CAR levels); format: cell-based; details: Ymax is the % protein degraded; Jurkat cells expressing Q1F degron-tagged CD19 CAR; 18 hours; read-out: Q1F Jurkat-YMax
READOUT_TYPE: Dmax (%)

MOLECULE	QUANTITY_UNIT	Dmax
O=C1CCC(N2Cc3c(cc(F)c(C4(O)CCN(Cc5n[nH]c6ccccc56)CC4)c3F)C2=O)C(=O)N1 (stereo not shown)	%	66.2
O=C1CCC(N2Cc3c(cc(F)c(C4CCN(CC5CCCC5)CC4)c3F)C2=O)C(=O)N1 (stereo not shown)	%	84.6
O=C1CCC(N2Cc3c(cc(F)c(C4(O)CCN(Cc5coc(-c6cccs6)n5)CC4)c3F)C2=O)C(=O)N1 (stereo not shown)	%	66.9
O=C1CCC(N2Cc3c(cc(F)c(C4CCN(Cc5ccc(-n6ccnc6)cc5)CC4)c3F)C2=O)C(=O)N1 (stereo not shown)	%	91.7
CS(=O)(=O)CCCN1CCC(c2c(F)cc3c(c2F)CN(C2CCC(=O)NC2=O)C3=O)CC1 (stereo not shown)	%	76.7
O=C1CCC(N2Cc3c(cc(F)c(C4(O)CCN(Cc5cccc(-n6cccn6)c5)CC4)c3F)C2=O)C(=O)N1 (stereo not shown)	%	79.9
Cc1cc(-c2cc(F)c3c(c2)CN(C2CCC(=O)NC2=O)C3=O)nc(N)c1C (stereo not shown)	%	92.9
O=C1CCC(N2Cc3c(cc(F)c(C4CCN(CC5CCOC5)CC4)c3F)C2=O)C(=O)N1 (stereo not shown)	%	86.2
COc1ccc(-n2cccn2)c(CN2CCC(O)(c3c(F)cc4c(c3F)CN(C3CCC(=O)NC3=O)C4=O)CC2)c1 (stereo not shown)	%	51.6
O=C1CCC(N2Cc3c(cc(F)c(C4(O)CCN(CC5CCCCC5)CC4)c3F)C2=O)C(=O)N1 (stereo not shown)	%	60.4
COCCOCCN1CCC(c2c(F)cc3c(c2F)CN(C2CCC(=O)NC2=O)C3=O)CC1 (stereo not shown)	%	75.5
O=C1CCC(N2Cc3c(cc(F)c(C4CCN(C5CCC5)CC4)c3F)C2=O)C(=O)N1 (stereo not shown)	%	78.7
O=C1CCC(N2Cc3c(cc(F)c(C4(O)CCN(Cc5ccc(C(F)(F)F)cc5)CC4)c3F)C2=O)C(=O)N1 (stereo not shown)	%	83.5

* * *

biological target: IKZF1 ZNF2_ZNF3 Q1F degron-tagged CD19 CAR (Homo sapiens, UniProt Q13422, Q146F); construct: ZNF2_ZNF3 Q1F degron (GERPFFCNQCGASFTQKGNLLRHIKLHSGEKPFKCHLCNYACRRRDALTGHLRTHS); fused on or other part: anti-CD19 scFv, CD28 transmembrane domain, 4-1BB costimulatory domain, CD3 zeta signaling domain (the CAR that carries the degron), and Nluc; assay: Degradation of Q1F degron-tagged CD19 CAR in Jurkat cells (flow cytometry of CAR levels); assay type: cell-based; conditions: Jurkat cells expressing CD19 CAR tagged with IKZF1 ZNF2_ZNF3 Q1F; 18 hours at 37° C.; CAR levels normalized to untreated cells; read-out: Q1F Jurkat IC50
READOUT_TYPE: DC50 (nM)

Example cases with answers are listed next.
MOLECULE	ASSAY_RESULT
O=C1CCC(N2Cc3c(cc(F)c(C4(O)CCN(Cc5ccc(C(F)(F)F)cc5)CC4)c3F)C2=O)C(=O)N1 (centres unmarked)	4.91
O=C1CCC(N2Cc3c(cc(F)c(C4(O)CCN(Cc5ncccc5Br)CC4)c3F)C2=O)C(=O)N1 (centres unmarked)	101
O=C1CCC(N2Cc3c(cc(F)c(C4(O)CCN(Cc5ccc6ncsc6c5)CC4)c3F)C2=O)C(=O)N1 (centres unmarked)	4.33
COc1ccnc(CN2CCC(O)(c3c(F)cc4c(c3F)CN(C3CCC(=O)NC3=O)C4=O)CC2)c1 (centres unmarked)	48.2

I. CS(=O)(=O)c1ccc(CN2CCC(c3c(F)cc4c(c3F)CN(C3CCC(=O)NC3=O)C4=O)CC2)cc1 (centres unmarked)
II. O=C1CCC(N2Cc3c(cc(F)c(C4CCN(Cc5nc(-c6ccccc6)no5)CC4)c3F)C2=O)C(=O)N1 (centres unmarked)
III. O=C1CCC(N2Cc3c(cc(F)c(C4CCN(CCO)CC4)c3F)C2=O)C(=O)N1 (centres unmarked)
IV. CS(=O)(=O)NCCN1CCC(c2c(F)cc3c(c2F)CN(C2CCC(=O)NC2=O)C3=O)CC1 (centres unmarked)
Prompt line: Order the records, beginning with the lowest DC50 and ending with the highest. Give the labels in the order requested.
Response line: I, III, IV, II

* * *

molecular target: IKZF1 ZNF2_ZNF3 Q1F degron-tagged CD19 CAR (Homo sapiens, UniProt Q13422, Q146F); construct: ZNF2_ZNF3 Q1F degron (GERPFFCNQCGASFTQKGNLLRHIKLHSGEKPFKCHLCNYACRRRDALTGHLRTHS); fused on or other part: anti-CD19 scFv, CD28 transmembrane domain, 4-1BB costimulatory domain, CD3 zeta signaling domain (the CAR that carries the degron), and Nluc; assay: Degradation of Q1F degron-tagged CD19 CAR in Jurkat cells (flow cytometry of CAR levels); format: cell-based; conditions: Jurkat cells expressing CD19 CAR tagged with IKZF1 ZNF2_ZNF3 Q1F; 18 hours at 37° C.; CAR levels normalized to untreated cells; read-out: Q1F Jurkat IC50
DC50 for assorted molecules
// note: answer is a bare numeric in nM

MOLECULE	QUANTITY_UNIT	DC50
CN(CCN1CCC(c2cc3c(cc2F)C(=O)N(C2CCC(=O)NC2=O)C3)CC1)Cc1ccccc1 (stereo not shown)	nM	0.533

Prompt line: Looking for the measured DC50 of O=C1CCC(N2Cc3c(cc(F)c(C4(O)CCN(Cc5n[nH]c6ccccc56)CC4)c3F)C2=O)C(=O)N1 (stereo not shown) , can you help?
Response line: 95.3

Prompt line: Now try O=C1CCC(N2Cc3c(cc(F)c(C4(O)CCN(Cc5ccc(C(F)(F)F)cc5O)CC4)c3F)C2=O)C(=O)N1 (stereo not shown) .
Response line: 14.3

Prompt line: Now try N#Cc1ccc2c(c1)CN(C(=O)c1c(F)cc3c(c1F)CN(C1CCC(=O)NC1=O)C3=O)CC2 (stereo not shown) .
Response line: 15

* * *

DC50 for assorted compounds
target: IKZF1 ZNF2_ZNF3 Q1F degron-tagged CD19 CAR (Homo sapiens, UniProt Q13422, Q146F); construct: ZNF2_ZNF3 Q1F degron (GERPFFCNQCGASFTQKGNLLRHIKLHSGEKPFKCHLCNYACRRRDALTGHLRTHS); fused on or other part: anti-CD19 scFv, CD28 transmembrane domain, 4-1BB costimulatory domain, CD3 zeta signaling domain (the CAR that carries the degron), and Nluc; assay: Degradation of Q1F degron-tagged CD19 CAR in Jurkat cells (flow cytometry of CAR levels); format: cell-based; details: Jurkat cells expressing CD19 CAR tagged with IKZF1 ZNF2_ZNF3 Q1F; 18 hours at 37° C.; CAR levels normalized to untreated cells; read-out: Q1F Jurkat IC50
// note: answer is a bare numeric in µM

Example cases with answers are listed next.
COMPOUND	QUANTITY_UNIT	DC50
COc1ccc(CN2CCC(O)(c3c(F)cc4c(c3F)CN(C3CCC(=O)NC3=O)C4=O)CC2)nc1 (stereo not drawn)	µM	0.0332
O=C1CCC(N2Cc3c(cc(F)c(C4(O)CCN(Cc5ccc(C(F)(F)F)cc5Br)CC4)c3F)C2=O)C(=O)N1 (stereo not drawn)	µM	0.014

Prompt line: Looking for the measured DC50 of O=C1CCC(N2Cc3c(cc(F)c(C4(O)CCN(Cc5ccc(C(F)(F)F)cc5F)CC4)c3F)C2=O)C(=O)N1 (stereo not drawn) , can you help?
Response line: 0.0333
